- Test system: CCRF-CEM leukemia
- ASSAY COMMENT: NCI-60 one-dose screen, 48 h (100 = growth as untreated, 0 = no growth, -100 = all killed)
- PROTOCOL CONDITIONS: 10 µM unless noted
This is part of a sample that, as a whole, favours compounds with a hit. Of some 83,000 tested, about 20% had one in any assay.
Consider the following compounds; for each one, report its growth.
Answers are plain numbers, in %.

Answered examples (5):
CS(=O)(=O)Nc1cccc(-c2ccc3ncnc(Nc4cncc(Cl)c4)c3c2)c1 = 17.1
CC(C(C(=O)N1CCCCC1)N1CCCCC1)N1CCCCC1 (centres undefined) = 116
COc1ccc(C(=O)NC(=O)Nc2ccc3c(c2)NC(=O)/C3=C\c2[nH]c(C)c(C(=O)O)c2C)cc1 = 64
COc1ccc(C(=O)Cn2cnc3c(Nc4cc(C(=O)Nc5ccc(N6CCN(CCO)CC6)cc5)ccc4C)ncnc32)cc1 = 105
C/C(=N/O)c1ccc(NC(=O)Cn2nc(-c3ccc(Cl)cc3)nc2N)cc1 = 85.8

Look at each compound and report its growth.
1. C=CCOc1ccc(/C(Cl)=N/N=C(\Cl)c2cc(OC)c(OC)c(OC)c2)cc1
2. O=C(Nc1ccc(Cl)c(Cl)c1)Nc1ccc(Cl)c([N+](=O)[O-])c1

[out]
1: 34; 2: 1.21

For every record below, what is its growth?
1. O=C1CCC(c2c(O)cc(O)c3c(=O)c(O)c(-c4ccc(O)c(O)c4)oc23)N1 (centres undefined)
2. Cc1ccc2c(C3C(C#N)=C(N)Oc4cc5ccccc5cc43)cc(=O)oc2c1 (centres undefined)

[out]
1: 103; 2: 13

----------
- Test system: SK-OV-3 ovarian
- ASSAY COMMENT: NCI-60 one-dose screen, 48 h (100 = growth as untreated, 0 = no growth, -100 = all killed)
- PROTOCOL CONDITIONS: 10 µM unless noted
About 83,000 compounds went through this panel and 20% of them were active in at least one assay; those are over-represented in the sample as a whole.
Would you kindly list growth for each of these compounds?
Give bare numbers, in %.

Would you be so kind as to report growth for each listed record?
1. COc1ccc(C(=O)NC(=O)Nc2ccc3c(c2)NC(=O)/C3=C\c2[nH]c(C)c(CCC(=O)O)c2C)c(F)c1
2. CCC(C)Nc1ccc(N)cc1 (stereo not given)
3. COc1cc(NS(=O)(=O)c2ccc(N)cc2)ncn1
4. C#C[C@@]1(O)[C@@H](CO)O[C@@H](n2cc(Br)c3c(Cl)ccnc32)[C@@H]1O
5. O=S(=O)(CCN1CCOCC1)Nc1cc(-c2ccc3ncnc(Nc4ccc(F)c(Cl)c4)c3c2)cnc1Cl
6. CCOC(=O)CSc1nnc(-c2cc3c([nH]c4ccccc43)c(-c3cccc(O)c3)n2)n1-c1ccc(C)cc1
7. O=C(Nc1ccc(-n2cc(-c3ccncc3)c(-c3ccc(O)c(Cl)c3)n2)cc1)c1cc(Cl)cc(Cl)c1
8. Cc1ccc2oc(=O)cc(C3C(C#N)=C(N)Oc4c3ccc3ccccc43)c2c1 (stereo not given)

[out]
1. 56.6
2. 38.5
3. 107
4. 42.1
5. -25.4
6. 105
7. 70.2
8. 88.1

For each listed entry, give its growth.
1. O=C(O)c1ccc2nc(-c3ccc(OCCCCCOc4ccc(-c5nc6ccc(C(=O)O)cc6[nH]5)cc4)cc3)[nH]c2c1
2. NC(=S)NNC1CCCCC1

[out]
[48.8, 93.3]

----------
- Tested on: DU-145 prostate
- ASSAY COMMENT: NCI-60 one-dose screen, 48 h (100 = growth as untreated, 0 = no growth, -100 = all killed)
- PROTOCOL CONDITIONS: 10 µM unless noted
This is part of a sample that, as a whole, favours compounds with a hit. Of some 83,000 tested, about 20% had one in any assay. Active and inactive are the calls of the source. Rule for the calls: active = growth percent below 10; inactive = the rest.
ATTRIBUTE MEASURED: growth

Past entries and their recorded results:
COc1ccc(Cl)cc1NC(=O)c1cc2c(n1C)-c1nc(NC(=O)C(C)C)sc1CC2 = 83.5% (inactive)
C=CCOc1ccc(/C(Cl)=N/N=C(\Cl)c2cc(OC)c(OC)c(OC)c2)cc1 = 70% (inactive)
Cc1cc2nc(-c3c(N)ncc(C#N)c3-c3ccc(Cl)cc3)[nH]c2cc1C = 31.9% (inactive)
C/C(=N/NC(=O)Cn1c2ccccc2c2ccncc21)c1cccs1 = 108% (inactive)
COc1cc(C(=O)NNC(=O)c2ccccc2C(=O)O)cc(OC)c1OC = 56.8% (inactive)

// next entry
[in] For the compound `CC(C)(C)OC(=O)NCc1cccc(N=C=S)c1` , what growth is on record?
[out] 55.7% (inactive)

----------
- System: HCT-15 colon
- ASSAY COMMENT: NCI-60 one-dose screen, 48 h (100 = growth as untreated, 0 = no growth, -100 = all killed)
- PROTOCOL CONDITIONS: 10 µM unless noted
About 83,000 compounds went through this panel and 20% of them were active in at least one assay; those are over-represented in the sample as a whole.
Answer each item with its documented growth.
Numbers only, in %.

Previously resolved entries follow.
COc1cc([C@@H]2c3cc4c(cc3C(OC3O[C@@H]5COC(C)O[C@H]5[C@H](O)[C@H]3O)C3COC(=O)[C@@H]32)OCO4)cc(OC)c1O (stereo partly drawn) = 73.1
O=C(Nc1ccc(-n2cc(-c3ccncc3)c(-c3ccc(O)c(Cl)c3)n2)cc1)c1cc(Cl)cc(Cl)c1 = 11.2
Nc1nc2ccc(CNc3ccc(C(=O)NC(CC(=O)O)C(=O)O)cc3)cc2c(=O)[nH]1 (stereo not drawn) = 39.8
CCOC(=O)c1noc2c1CCc1c-2cn(Cc2ccc(OC)cc2)c1-c1cc(OC)c(OC)c(OC)c1 = 23.5
O=C(c1cc(-c2ccc(Cl)cc2)nc2ccccc12)N1N=C(c2ccccc2)CC1c1cc(-c2ccccc2)nn1-c1ccccc1 (stereo not drawn) = 56.7

Below are 3 compounds. Give each one its growth.
1. CCn1c(SC)nnc1-c1cc2c([nH]c3ccccc32)c(-c2cccc(O)c2)n1
2. COc1ccc(OCC(O)CN2CCN(c3ccc(Cl)cc3)CC2)cc1 (stereo not drawn)
3. O=C(Nc1ccc(-n2cc(-c3ccncc3)c(-c3ccc(O)c(Cl)c3)n2)cc1)Nc1cccc(Cl)c1Cl

[out]
[20.4, 105, 43.1]

----------
Hi there, I'd appreciate the recorded growth for every entry that follows.
- Test system: K-562 leukemia
- ASSAY COMMENT: NCI-60 one-dose screen, 48 h (100 = growth as untreated, 0 = no growth, -100 = all killed)
- PROTOCOL CONDITIONS: 10 µM unless noted
Compounds without any hit were thinned out: in the full panel of roughly 83,000, 20% have a hit.
One number for each entry, in %.

O[C@@H]1CCO[C@H](c2ccc3ccccc3c2)C1 = 98.3

Field: growth. Fill in for each record below.
1. COc1ccc(Cl)cc1NC(=O)c1cc2c(n1C)-c1nc(NC(=O)C(C)(C)C)sc1CC2
2. COc1ccc(/C=C/C(=O)c2ccc(NC(=O)CSc3nnc(-c4cc(OC)c(OC)c(OC)c4)o3)cc2)cc1
3. COc1ccc(CNc2nc3ccccc3c3c(=O)c4ccccc4sc23)cc1OC
4. N#Cc1c(N)nc(Cl)c(C#N)c1C(=O)c1ccccc1

[out]
1. 92.2
2. -52.2
3. 69.3
4. 5.81

----------
For each entry below, report its growth value.
- Tested on: NCI-H322M lung
- ASSAY COMMENT: NCI-60 one-dose screen, 48 h (100 = growth as untreated, 0 = no growth, -100 = all killed)
- PROTOCOL CONDITIONS: 10 µM unless noted
The panel holds about 83,000 compounds, 20% with a hit somewhere; the sample as a whole holds those more often.
One number for each entry, in %.

# example entries with known answers
CCc1c2cc(Cl)ccc2n2cc(Cc3ccccc3)[nH]c(=O)c12 = 83.7
c1ccc([Se]CCCN2CCN(CCC[Se]c3ccccc3)CC2)cc1 = 121
Oc1ccc(Cl)cc1Sc1cc(Cl)ccc1O = 115

Parameter requested: growth. Apply to each item below.
1. CCCCOc1nc2ccc(Cl)cc2cc1/C=C/C(=O)/C=C/c1ccc(OC)cc1
2. O=C(Nc1ccc(-n2ccc3c(NC(=O)c4ccccc4)nccc32)cc1)Nc1cccc(C(F)(F)F)c1

[out]
[95.6, 63.2]

# return growth for each item in the list
1. FC(F)(F)c1cn(CC2CNC2)c2ncnc(Cl)c12
2. Cc1cccc(NCS(=O)(=O)O)c1
3. COc1cc(Nc2ncccc2C(=O)Nc2nc3ccc(F)cc3s2)cc(OC)c1OC
4. CCOc1ccc(-n2c(-c3cc(OC)c(OC)c(OC)c3)nnc2-c2ccc(OC)cc2N)cc1
5. COc1ccc2c(-c3ccc(F)cc3)c(C#N)c(=NC(C)=O)oc2c1
6. COc1ccc2c(c1)OC(N)=C(C#N)C2c1ccc(F)cc1 (stereo unspecified)

[out]
[111, 106, 90.8, 81.3, 58.2, 55.7]
